The origin of these recorded values is PubChem BioAssay (NCI).

- Tested on: CAKI-1 renal
- procedure_details: NCI-60 one-dose screen, 48 h
- measurement_conditions: 10 µM unless noted
About 83,000 compounds went through this panel and 20% of them were active in at least one assay; those are over-represented in the sample as a whole. Activity calls are given as the source filed them. How the source made its calls: active means growth percent below 10; inactive means the rest.
Possible outcomes: t (active), f (inactive)

{"columns": ["molecule", "tgt", "group"],
 "data": [
  ["COc1ccc(CNC(=O)c2c(C)n([O-])c3ccc(OC)cc3[n+]2=O)cc1", "CAKI-1 renal", "f"],
  ["O=C1C2C(C(=O)N1CC[Se][Se]CCN1C(=O)C3C(C1=O)[C@H]1C=C[C@@H]3C1)[C@H]1C=C[C@@H]2C1 (stereo partly specified)", "CAKI-1 renal", "t"],
  ["CCCCCCCCN(CCO)CCCCCCCC", "CAKI-1 renal", "f"],
  ["CCc1ccc(-c2nc(SCC(=O)NC3CCCCC3)n[nH]2)cc1", "CAKI-1 renal", "f"],
  ["COC(=O)CC1=C(c2ccc([N+](=O)[O-])cc2)CCC1=O", "CAKI-1 renal", "f"],
  ["COc1ccc(C2=NN(C(N)=S)C(c3ccc4c(c3)OCO4)C2)cc1 (stereo unspecified)", "CAKI-1 renal", "t"],
  ["O=C1/C=C/[C@@H](O)[C@@H]2C[C@@H](O)C[C@H]2/C=C/CCC[C@H](CO)O1", "CAKI-1 renal", "f"],
  ["CCOC(=O)C1=CCC(n2cc(C)c(=O)[nH]c2=O)O1 (stereo unspecified)", "CAKI-1 renal", "f"],
  ["COc1cc(/C=C/C(=O)CC(=O)/C=C/c2ccc(OC(=O)C3C4CC5CC(C4)CC3C5)c(OC)c2)ccc1OC(=O)C1C2CC3CC(C2)CC1C3 (stereo unspecified)", "CAKI-1 renal", "f"],
  ["[N-]=[N+]=NCc1cccc(/C(O)=C/C(=O)C(=O)O)c1", "CAKI-1 renal", "f"],
  ["O=C(Nc1ccccc1)P(=O)(O)c1ccccc1", "CAKI-1 renal", "f"],
  ["FC(F)(F)c1ccc(-c2cnc(-c3nn[nH]n3)nc2NC2CCCCCC2)cc1", "CAKI-1 renal", "f"],
  ["O=C(NCCNC(=O)Oc1cccc2ccccc12)Oc1cccc2ccccc12", "CAKI-1 renal", "f"],
  ["Cc1ccc(S(=O)(=O)NCCN2c3nc4ccccc4cc3Sc3cc4ccccc4nc32)cc1", "CAKI-1 renal", "f"],
  ["Cc1cc(C)c(C(=O)c2cccs2)c(C)c1", "CAKI-1 renal", "f"],
  ["COc1ccc(-c2cc(-c3cccnc3)nc(S(=O)(=O)CC(=O)Nc3ccc(C)cc3)c2C#N)cc1OC", "CAKI-1 renal", "f"],
  ["Nc1nc2c(c(=O)[nH]1)C1(C(=O)Nc3ccccc31)c1c(nc(N)[nH]c1=O)N2", "CAKI-1 renal", "f"],
  ["CC1C(=O)NC2=Nc3ccccc3C(=O)NN21 (stereo unspecified)", "CAKI-1 renal", "f"],
  ["CC(C)=CCCC(C)c1ccc(C)c2c1OCN(CC1CCNCC1)C2 (stereo unspecified)", "CAKI-1 renal", "f"],
  ["O=C(N/N=C/c1ccc(Cl)cc1Cl)c1ccccc1Nc1cccc(C(F)(F)F)c1", "CAKI-1 renal", "f"],
  ["FCc1ncc(-c2ccc(C(F)(F)F)cc2)c(NC2CCCCCC2)n1", "CAKI-1 renal", "t"]
]}
